Provenance of the data: the CheMixHub ionic liquid set

# TEST_METHOD_NOTES: xn = mol fraction of the nth substance listed
# CONDITION_DETAILS: 308.15 K; 101 kPa; x2 = 0.001799; x1 = 3.6e-07
MEASURED_ATTRIBUTE: electrical conductivity (S/m)

[
  {
    "COMPOUND": "CCCCCCCCCCCCCCCC[n+]1ccccc1.O=C([O-])c1ccccc1O + NCC(=O)O + O",
    "UNIT_LABEL": "S/m",
    "OBSERVED_VALUE": 0.000776
  },
  {
    "COMPOUND": "CCCCCCCCCCCCCCCC[n+]1ccccc1.O=C([O-])c1ccccc1O + NCC(=O)NCC(=O)O + O",
    "UNIT_LABEL": "S/m",
    "OBSERVED_VALUE": 0.00444
  },
  {
    "COMPOUND": "CCCCCCCCCCCCCCCC[n+]1ccccc1.O=C([O-])c1ccccc1O + CC(C)C[C@H](N)C(=O)O + O",
    "UNIT_LABEL": "S/m",
    "OBSERVED_VALUE": 0.00213
  },
  {
    "COMPOUND": "CCCCCCCCCCCCCCCC[n+]1ccccc1.O=C([O-])c1ccccc1O + C[C@H](N)C(=O)O + O",
    "UNIT_LABEL": "S/m",
    "OBSERVED_VALUE": 0.000719
  },
  {
    "COMPOUND": "CCCCCCCCCCCCCCCC[n+]1ccccc1.O=C([O-])c1ccccc1O + CC(C)[C@H](N)C(=O)O + O",
    "UNIT_LABEL": "S/m",
    "OBSERVED_VALUE": 0.00169
  }
]

----------
Quick list: electrical conductivity per entry.
# TEST_METHOD_NOTES: xn = mol fraction of the nth substance listed
# CONDITION_DETAILS: 298.15 K; 101 kPa; x2 = 0.0009002; x1 = 1.99e-06

[
  {
    "COMPOUND": "CCCCCCCCCCCCCCCC[n+]1ccccc1.O=C([O-])c1ccccc1O + CC(C)[C@H](N)C(=O)O + O",
    "electrical conductivity [S/m]": 0.00156
  },
  {
    "COMPOUND": "CCCCCCCCCCCCCCCC[n+]1ccccc1.O=C([O-])c1ccccc1O + NCC(=O)O + O",
    "electrical conductivity [S/m]": 0.00113
  },
  {
    "COMPOUND": "CCCCCCCCCCCCCCCC[n+]1ccccc1.O=C([O-])c1ccccc1O + CC(C)C[C@H](N)C(=O)O + O",
    "electrical conductivity [S/m]": 0.00185
  },
  {
    "COMPOUND": "CCCCCCCCCCCCCCCC[n+]1ccccc1.O=C([O-])c1ccccc1O + NCC(=O)NCC(=O)O + O",
    "electrical conductivity [S/m]": 0.00269
  }
]

----------
# TEST_METHOD_NOTES: xn = mol fraction of the nth substance listed
# CONDITION_DETAILS: 313.15 K; 101 kPa; x2 = 0.0009002; x1 = 1.63e-06
The following compounds are listed with their measured electrical conductivity values.
MEASURED_ATTRIBUTE: electrical conductivity (S/m)

[
  {
    "COMPOUND": "CCCCCCCCCCCCCCCC[n+]1ccccc1.O=C([O-])c1ccccc1O + CC(C)C[C@H](N)C(=O)O + O",
    "UNIT_LABEL": "S/m",
    "OBSERVED_VALUE": 0.00225
  },
  {
    "COMPOUND": "CCCCCCCCCCCCCCCC[n+]1ccccc1.O=C([O-])c1ccccc1O + C[C@H](N)C(=O)O + O",
    "UNIT_LABEL": "S/m",
    "OBSERVED_VALUE": 0.00141
  },
  {
    "COMPOUND": "CCCCCCCCCCCCCCCC[n+]1ccccc1.O=C([O-])c1ccccc1O + NCC(=O)O + O",
    "UNIT_LABEL": "S/m",
    "OBSERVED_VALUE": 0.00134
  },
  {
    "COMPOUND": "CCCCCCCCCCCCCCCC[n+]1ccccc1.O=C([O-])c1ccccc1O + NCC(=O)NCC(=O)O + O",
    "UNIT_LABEL": "S/m",
    "OBSERVED_VALUE": 0.00402
  },
  {
    "COMPOUND": "CCCCCCCCCCCCCCCC[n+]1ccccc1.O=C([O-])c1ccccc1O + CC(C)[C@H](N)C(=O)O + O",
    "UNIT_LABEL": "S/m",
    "OBSERVED_VALUE": 0.00192
  }
]

----------
# TEST_METHOD_NOTES: xn = mol fraction of the nth substance listed
# CONDITION_DETAILS: 313.15 K; 101 kPa; x2 = 0.0009002; x1 = 1.99e-06
MEASURED_ATTRIBUTE: electrical conductivity (S/m)

[
  {
    "COMPOUND": "CCCCCCCCCCCCCCCC[n+]1ccccc1.O=C([O-])c1ccccc1O + NCC(=O)O + O",
    "OBSERVED_VALUE": 0.00156
  },
  {
    "COMPOUND": "CCCCCCCCCCCCCCCC[n+]1ccccc1.O=C([O-])c1ccccc1O + NCC(=O)NCC(=O)O + O",
    "OBSERVED_VALUE": 0.00426
  },
  {
    "COMPOUND": "CCCCCCCCCCCCCCCC[n+]1ccccc1.O=C([O-])c1ccccc1O + CC(C)[C@H](N)C(=O)O + O",
    "OBSERVED_VALUE": 0.00215
  },
  {
    "COMPOUND": "CCCCCCCCCCCCCCCC[n+]1ccccc1.O=C([O-])c1ccccc1O + CC(C)C[C@H](N)C(=O)O + O",
    "OBSERVED_VALUE": 0.00253
  }
]

----------
# TEST_METHOD_NOTES: xn = mol fraction of the nth substance listed
# CONDITION_DETAILS: 308.15 K; 101 kPa; x2 = 0.0009002; x1 = 1.63e-06

[
  {
    "COMPOUND": "CCCCCCCCCCCCCCCC[n+]1ccccc1.O=C([O-])c1ccccc1O + CC(C)C[C@H](N)C(=O)O + O",
    "electrical conductivity [S/m]": 0.00204
  },
  {
    "COMPOUND": "CCCCCCCCCCCCCCCC[n+]1ccccc1.O=C([O-])c1ccccc1O + C[C@H](N)C(=O)O + O",
    "electrical conductivity [S/m]": 0.00127
  },
  {
    "COMPOUND": "CCCCCCCCCCCCCCCC[n+]1ccccc1.O=C([O-])c1ccccc1O + NCC(=O)O + O",
    "electrical conductivity [S/m]": 0.0012
  },
  {
    "COMPOUND": "CCCCCCCCCCCCCCCC[n+]1ccccc1.O=C([O-])c1ccccc1O + CC(C)[C@H](N)C(=O)O + O",
    "electrical conductivity [S/m]": 0.00173
  },
  {
    "COMPOUND": "CCCCCCCCCCCCCCCC[n+]1ccccc1.O=C([O-])c1ccccc1O + NCC(=O)NCC(=O)O + O",
    "electrical conductivity [S/m]": 0.00345
  }
]

----------
Reported electrical conductivity values are given for each entry in this list.
# TEST_METHOD_NOTES: xn = mol fraction of the nth substance listed
# CONDITION_DETAILS: 293.15 K; 101 kPa; x2 = 0.001799; x1 = 9.1e-07

[
  {
    "MOLECULE": "CCCCCCCCCCCCCCCC[n+]1ccccc1.O=C([O-])c1ccccc1O + C[C@H](N)C(=O)O + O",
    "UNIT_LABEL": "S/m",
    "electrical conductivity": 0.00073
  },
  {
    "MOLECULE": "CCCCCCCCCCCCCCCC[n+]1ccccc1.O=C([O-])c1ccccc1O + CC(C)C[C@H](N)C(=O)O + O",
    "UNIT_LABEL": "S/m",
    "electrical conductivity": 0.00179
  },
  {
    "MOLECULE": "CCCCCCCCCCCCCCCC[n+]1ccccc1.O=C([O-])c1ccccc1O + NCC(=O)NCC(=O)O + O",
    "UNIT_LABEL": "S/m",
    "electrical conductivity": 0.00291
  },
  {
    "MOLECULE": "CCCCCCCCCCCCCCCC[n+]1ccccc1.O=C([O-])c1ccccc1O + NCC(=O)O + O",
    "UNIT_LABEL": "S/m",
    "electrical conductivity": 0.000684
  }
]
